- Method: Stability of analytes in rat plasma QC samples under storage conditions
- Format: in vitro ADME
- Experimental Setup: rat plasma, n=6; low QC: spiked 20 ng/mL glycyrrhizic acid; 10 liquiritin; 2 emodin, gallic acid, ononin, schisandrin, stilbene glycoside; 1 isoliquiritigenin, liquiritigenin, rhein, verbascoside
Reported Endpoint: Measured Concentration, -70°C for 14 days (ng/mL)

C[C@@H]1O[C@@H](O[C@@H]2[C@@H](O)[C@H](OCCc3ccc(O)c(O)c3)O[C@H](CO)[C@H]2OC(=O)/C=C/c2ccc(O)c(O)c2)[C@H](O)[C@H](O)[C@H]1O [verbascoside] = 1.01
O=C(O)c1cc(O)c2c(c1)C(=O)c1cccc(O)c1C2=O = 0.95
O=C(/C=C/c1ccc(O)cc1)c1ccc(O)cc1O = 0.89
Cc1cc(O)c2c(c1)C(=O)c1cc(O)cc(O)c1C2=O = 1.86
